Each recorded value in this set is attributed to paper PMC6321124.

- Test system: Tricophyton rubrum (KCTC 6345)
- Condition Label: KCTC 6345, 48 h, pH 6
Residues, ends and D or L forms follow the SMILES beside them.
Catalogue of MIC readings, one per entry.
The figure you give is taken to be in µM; do not add the unit.

Here's what some known entries look like.
Compound	Target Of Assay	Scale Unit	MIC
NCCCC[C@H](NC(=O)[C@H](CCCCN)NC(=O)[C@H](Cc1c[nH]cn1)NC(=O)[C@H](CCCCN)NC(=O)[C@H](CCCCN)NC(=O)[C@H](Cc1c[nH]cn1)NC(=O)[C@H](CCCCN)NC(=O)[C@H](CCCCN)NC(=O)[C@H](Cc1c[nH]cn1)NC(=O)[C@H](CCCCN)NC(=O)[C@H](CCCCN)NC(=O)[C@H](Cc1c[nH]cn1)NC(=O)[C@H](CCCCN)NC(=O)[C@H](CCCCN)NC(=O)[C@H](Cc1c[nH]cn1)NC(=O)[C@H](CCCCN)NC(=O)[C@H](CCCCN)NC(=O)[C@@H](N)Cc1c[nH]cn1)C(N)=O [(HKK)6] (H-HKKHKKHKKHKKHKKHKK-NH2)	Tricophyton rubrum (KCTC 6345)	µM	8
NCCCC[C@H](NC(=O)[C@H](CCCCN)NC(=O)[C@H](Cc1c[nH]cn1)NC(=O)[C@H](CCCCN)NC(=O)[C@H](CCCCN)NC(=O)[C@@H](N)Cc1c[nH]cn1)C(N)=O [(HKK)2] (H-HKKHKK-NH2)	Tricophyton rubrum (KCTC 6345)	µM	64
NCCCC[C@H](NC(=O)[C@H](CCCCN)NC(=O)[C@H](Cc1c[nH]cn1)NC(=O)[C@H](CCCCN)NC(=O)[C@H](CCCCN)NC(=O)[C@H](Cc1c[nH]cn1)NC(=O)[C@H](CCCCN)NC(=O)[C@H](CCCCN)NC(=O)[C@H](Cc1c[nH]cn1)NC(=O)[C@H](CCCCN)NC(=O)[C@H](CCCCN)NC(=O)[C@@H](N)Cc1c[nH]cn1)C(N)=O [(HKK)4] (H-HKKHKKHKKHKK-NH2)	Tricophyton rubrum (KCTC 6345)	µM	16

Input: Given the compound NCCCC[C@H](NC(=O)[C@H](CCCCN)NC(=O)[C@@H](N)Cc1c[nH]cn1)C(N)=O [(HKK)1] (H-His-Lys-Lys-NH2) , what is its reported MIC?
Output: 512

* * *

Catalogue of MIC readings, one per entry.
- Tested on: C. albicans (KCTC 7270)
- Condition Label: KCTC 7270, 48 h, pH 6
Residues, ends and D or L forms follow the SMILES beside them.
The figure you give is taken to be in µM; do not add the unit.

Here's what some known entries look like.
Compound	MIC (µM)
NCCCC[C@H](NC(=O)[C@H](CCCCN)NC(=O)[C@H](Cc1c[nH]cn1)NC(=O)[C@H](CCCCN)NC(=O)[C@H](CCCCN)NC(=O)[C@H](Cc1c[nH]cn1)NC(=O)[C@H](CCCCN)NC(=O)[C@H](CCCCN)NC(=O)[C@H](Cc1c[nH]cn1)NC(=O)[C@H](CCCCN)NC(=O)[C@H](CCCCN)NC(=O)[C@H](Cc1c[nH]cn1)NC(=O)[C@H](CCCCN)NC(=O)[C@H](CCCCN)NC(=O)[C@H](Cc1c[nH]cn1)NC(=O)[C@H](CCCCN)NC(=O)[C@H](CCCCN)NC(=O)[C@@H](N)Cc1c[nH]cn1)C(N)=O [(HKK)6] (H-HKKHKKHKKHKKHKKHKK-NH2)	16
NCCCC[C@H](NC(=O)[C@H](CCCCN)NC(=O)[C@@H](N)Cc1c[nH]cn1)C(N)=O [(HKK)1] (H-His-Lys-Lys-NH2)	1024
NCCCC[C@H](NC(=O)[C@H](CCCCN)NC(=O)[C@H](Cc1c[nH]cn1)NC(=O)[C@H](CCCCN)NC(=O)[C@H](CCCCN)NC(=O)[C@H](Cc1c[nH]cn1)NC(=O)[C@H](CCCCN)NC(=O)[C@H](CCCCN)NC(=O)[C@@H](N)Cc1c[nH]cn1)C(N)=O [(HKK)3] (H-HKKHKKHKK-NH2)	64
NCCCC[C@H](NC(=O)[C@H](CCCCN)NC(=O)[C@H](Cc1c[nH]cn1)NC(=O)[C@H](CCCCN)NC(=O)[C@H](CCCCN)NC(=O)[C@@H](N)Cc1c[nH]cn1)C(N)=O [(HKK)2] (H-HKKHKK-NH2)	64

Input: Form: Entry = NCCCC[C@H](NC(=O)[C@H](CCCCN)NC(=O)[C@H](Cc1c[nH]cn1)NC(=O)[C@H](CCCCN)NC(=O)[C@H](CCCCN)NC(=O)[C@H](Cc1c[nH]cn1)NC(=O)[C@H](CCCCN)NC(=O)[C@H](CCCCN)NC(=O)[C@H](Cc1c[nH]cn1)NC(=O)[C@H](CCCCN)NC(=O)[C@H](CCCCN)NC(=O)[C@@H](N)Cc1c[nH]cn1)C(N)=O [(HKK)4] (H-HKKHKKHKKHKK-NH2) | System = C. albicans (KCTC 7270) | MIC = ____
Output: 32

* * *

- Tested on: F. oxysporum (KCTC 16909)
- Condition Label: KCTC 16909, 48 h, pH 6
Residues, ends and D or L forms follow the SMILES beside them.
Catalogue of MIC readings, one per entry.

Here's what some known entries look like.
Compound	MIC
NCCCC[C@H](NC(=O)[C@H](CCCCN)NC(=O)[C@H](Cc1c[nH]cn1)NC(=O)[C@H](CCCCN)NC(=O)[C@H](CCCCN)NC(=O)[C@H](Cc1c[nH]cn1)NC(=O)[C@H](CCCCN)NC(=O)[C@H](CCCCN)NC(=O)[C@@H](N)Cc1c[nH]cn1)C(N)=O [(HKK)3] (H-HKKHKKHKK-NH2)	32 µM
NCCCC[C@H](NC(=O)[C@H](CCCCN)NC(=O)[C@H](Cc1c[nH]cn1)NC(=O)[C@H](CCCCN)NC(=O)[C@H](CCCCN)NC(=O)[C@@H](N)Cc1c[nH]cn1)C(N)=O [(HKK)2] (H-HKKHKK-NH2)	64 µM
NCCCC[C@H](NC(=O)[C@H](CCCCN)NC(=O)[C@H](Cc1c[nH]cn1)NC(=O)[C@H](CCCCN)NC(=O)[C@H](CCCCN)NC(=O)[C@H](Cc1c[nH]cn1)NC(=O)[C@H](CCCCN)NC(=O)[C@H](CCCCN)NC(=O)[C@H](Cc1c[nH]cn1)NC(=O)[C@H](CCCCN)NC(=O)[C@H](CCCCN)NC(=O)[C@@H](N)Cc1c[nH]cn1)C(N)=O [(HKK)4] (H-HKKHKKHKKHKK-NH2)	4 µM
NCCCC[C@H](NC(=O)[C@H](CCCCN)NC(=O)[C@H](Cc1c[nH]cn1)NC(=O)[C@H](CCCCN)NC(=O)[C@H](CCCCN)NC(=O)[C@H](Cc1c[nH]cn1)NC(=O)[C@H](CCCCN)NC(=O)[C@H](CCCCN)NC(=O)[C@H](Cc1c[nH]cn1)NC(=O)[C@H](CCCCN)NC(=O)[C@H](CCCCN)NC(=O)[C@H](Cc1c[nH]cn1)NC(=O)[C@H](CCCCN)NC(=O)[C@H](CCCCN)NC(=O)[C@H](Cc1c[nH]cn1)NC(=O)[C@H](CCCCN)NC(=O)[C@H](CCCCN)NC(=O)[C@@H](N)Cc1c[nH]cn1)C(N)=O [(HKK)6] (H-HKKHKKHKKHKKHKKHKK-NH2)	2 µM

Input: Given the compound NCCCC[C@H](NC(=O)[C@H](CCCCN)NC(=O)[C@@H](N)Cc1c[nH]cn1)C(N)=O [(HKK)1] (H-His-Lys-Lys-NH2) , what is its reported MIC?
Output: 256 µM

* * *

Catalogue of MIC readings, one per entry.
- Tested on: F. moniliforme (KCTC 6149)
- Condition Label: KCTC 6149, 48 h, pH 6
Residues, ends and D or L forms follow the SMILES beside them.
The reply must contain the numeric value and, after it, the unit.

Here's what some known entries look like.
Compound	Parameter Measured	Result
NCCCC[C@H](NC(=O)[C@H](CCCCN)NC(=O)[C@@H](N)Cc1c[nH]cn1)C(N)=O [(HKK)1] (H-His-Lys-Lys-NH2)	MIC	256 µM
NCCCC[C@H](NC(=O)[C@H](CCCCN)NC(=O)[C@H](Cc1c[nH]cn1)NC(=O)[C@H](CCCCN)NC(=O)[C@H](CCCCN)NC(=O)[C@H](Cc1c[nH]cn1)NC(=O)[C@H](CCCCN)NC(=O)[C@H](CCCCN)NC(=O)[C@H](Cc1c[nH]cn1)NC(=O)[C@H](CCCCN)NC(=O)[C@H](CCCCN)NC(=O)[C@H](Cc1c[nH]cn1)NC(=O)[C@H](CCCCN)NC(=O)[C@H](CCCCN)NC(=O)[C@H](Cc1c[nH]cn1)NC(=O)[C@H](CCCCN)NC(=O)[C@H](CCCCN)NC(=O)[C@@H](N)Cc1c[nH]cn1)C(N)=O [(HKK)6] (H-HKKHKKHKKHKKHKKHKK-NH2)	MIC	2 µM

Input: Given the compound NCCCC[C@H](NC(=O)[C@H](CCCCN)NC(=O)[C@H](Cc1c[nH]cn1)NC(=O)[C@H](CCCCN)NC(=O)[C@H](CCCCN)NC(=O)[C@H](Cc1c[nH]cn1)NC(=O)[C@H](CCCCN)NC(=O)[C@H](CCCCN)NC(=O)[C@@H](N)Cc1c[nH]cn1)C(N)=O [(HKK)3] (H-HKKHKKHKK-NH2) , what is its reported MIC?
Output: 16 µM

Input: Same question, NCCCC[C@H](NC(=O)[C@H](CCCCN)NC(=O)[C@H](Cc1c[nH]cn1)NC(=O)[C@H](CCCCN)NC(=O)[C@H](CCCCN)NC(=O)[C@@H](N)Cc1c[nH]cn1)C(N)=O [(HKK)2] (H-HKKHKK-NH2) this time
Output: 32 µM

Input: Same question, NCCCC[C@H](NC(=O)[C@H](CCCCN)NC(=O)[C@H](Cc1c[nH]cn1)NC(=O)[C@H](CCCCN)NC(=O)[C@H](CCCCN)NC(=O)[C@H](Cc1c[nH]cn1)NC(=O)[C@H](CCCCN)NC(=O)[C@H](CCCCN)NC(=O)[C@H](Cc1c[nH]cn1)NC(=O)[C@H](CCCCN)NC(=O)[C@H](CCCCN)NC(=O)[C@@H](N)Cc1c[nH]cn1)C(N)=O [(HKK)4] (H-HKKHKKHKKHKK-NH2) this time
Output: 4 µM
